Property: T/C; scope: individual compounds
# System: L1210 leukemia ip in BDF1 mice, survival T/C
# Method: NCI In Vivo Anticancer Drug Screen. Data for tumor model L1210 Leukemia (intraperitoneal) in B6D2F1 (BDF1) mice
# Condition set: endpoint: mean survival time; dose: 400.0 mg/kg/injection; schedule: Q01DX001 (ip); vehicle: Klucel (hydroxypropylcellulose) (HPC); higher = longer survival
Toxic doses and inconclusive results are not listed.

Use the examples below as a reference point.
INSERT INTO measurements (compound, recorded_measurement) VALUES
  ('Oc1ccccc1C=NCCCN1CC1.[Ni+2].[O-]c1ccccc1C=NCCCN1CC1', '104 % of control'),
  ('Oc1ccccc1CNc1nn[nH]n1', '103 % of control'),
  ('CCOC(=O)C(=Cc1ccccc1OC)C(=O)OCC', '111 % of control'),
  ('O=[N+]([O-])c1ccc(C(=NO)c2ccc([N+](=O)[O-])cc2)cc1', '101 % of control'),
  ('CC(=O)Nc1nc2oc(C)nc2c(=O)[nH]1', '103 % of control'),
  ('COc1ccc(Cl)cc1[N+](=O)[O-]', '95 % of control'),
  ('COc1cc([N+](=O)[O-])c(Cl)cc1NS(=O)(=O)c1ccc(C)cc1', '90 % of control'),
  ('Cc1ccc([N+](=O)[O-])cc1NC(=O)N1CCCCC1C (configuration not stated)', '101 % of control'),
  ('O=C(O)c1ccccc1[N+](=O)[O-]', '96 % of control'),
  ('O=C(Nc1ccnc(=O)[nH]1)c1ccccc1', '92 % of control');

// below: T/C requested for another compound
In: Please report T/C with L1210 leukemia ip in BDF1 mice, survival T/C for item CC(=O)c1ccc(Cl)c([N+](=O)[O-])c1 .
Out: 96 % of control
